biological target: human ether-à-go-go-related gene (hERG) potassium channel (human); experiment: primary screen, population patch clamp on CHO cells stably expressing hERG; higher = less effect of the substance;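 note: peak tail current of the secondary pulse compared with the same well before compound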
Sequence (Q12809 whole entry, looked up): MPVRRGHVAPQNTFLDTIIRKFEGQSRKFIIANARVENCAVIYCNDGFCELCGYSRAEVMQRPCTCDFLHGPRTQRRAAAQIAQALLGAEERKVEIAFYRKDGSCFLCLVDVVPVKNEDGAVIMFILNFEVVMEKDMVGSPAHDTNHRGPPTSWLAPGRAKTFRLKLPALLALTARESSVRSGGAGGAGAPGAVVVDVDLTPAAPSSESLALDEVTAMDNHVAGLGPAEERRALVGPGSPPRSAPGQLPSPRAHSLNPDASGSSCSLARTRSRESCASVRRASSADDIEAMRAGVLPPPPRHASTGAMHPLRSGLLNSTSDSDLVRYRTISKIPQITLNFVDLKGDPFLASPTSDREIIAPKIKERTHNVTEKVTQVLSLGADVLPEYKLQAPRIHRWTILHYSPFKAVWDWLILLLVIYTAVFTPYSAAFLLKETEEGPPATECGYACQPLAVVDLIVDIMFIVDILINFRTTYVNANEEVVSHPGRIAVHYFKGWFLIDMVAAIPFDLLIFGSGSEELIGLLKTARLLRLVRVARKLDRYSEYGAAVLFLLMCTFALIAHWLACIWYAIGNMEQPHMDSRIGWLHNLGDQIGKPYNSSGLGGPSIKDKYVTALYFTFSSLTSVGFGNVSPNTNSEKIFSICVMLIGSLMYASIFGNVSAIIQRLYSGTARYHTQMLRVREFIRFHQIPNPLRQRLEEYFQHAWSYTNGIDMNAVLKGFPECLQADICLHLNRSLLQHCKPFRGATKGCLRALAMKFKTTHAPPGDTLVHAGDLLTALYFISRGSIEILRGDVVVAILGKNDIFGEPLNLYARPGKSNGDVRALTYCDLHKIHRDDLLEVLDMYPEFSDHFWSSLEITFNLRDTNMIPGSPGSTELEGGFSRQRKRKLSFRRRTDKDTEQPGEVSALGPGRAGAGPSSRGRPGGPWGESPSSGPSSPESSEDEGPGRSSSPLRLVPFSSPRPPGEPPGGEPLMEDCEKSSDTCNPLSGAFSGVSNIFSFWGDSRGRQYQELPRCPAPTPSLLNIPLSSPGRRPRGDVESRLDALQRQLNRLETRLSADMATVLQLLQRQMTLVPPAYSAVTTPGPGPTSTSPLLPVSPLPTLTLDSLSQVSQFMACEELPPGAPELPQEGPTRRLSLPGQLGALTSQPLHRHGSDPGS
About 14,000 (4.5%) of roughly 310,000 compounds showed an effect of 50% or more. The effect is printed as a negative number. This is one part of a sample in which strong results are shown more often than they occur.
Entry class follows hERG current change (%, negative = inhibition) at 10uM: low = under -20%, moderate = from -20% up to 10%, high = 10% and over

1) COc1ccc(CN2CCN(C(c3ccc(F)cc3)c3ccc(F)cc3)CC2)c(OC)c1OC.Cl; moderate
2) COc1cc(OC)c(CN2CCN(c3ccc(F)cc3)CC2)cc1Br; low
3) COc1ccc(CN2CCNCC2)c(OC)c1OC; moderate
4) COc1cc(OC)c(OC)cc1CN1CCN(c2ccc(F)cc2)CC1; low
5) COc1ccc(C2C(C#N)=C(N)Oc3n[nH]c(C)c32)cc1Cn1cc([N+](=O)[O-])cn1 (stereo not shown); moderate
6) COc1cc(OC)c(CN2CCCN(C)CC2)cc1Br; high
7) COc1cc(OC)c(CN2CCCCCCC2)cc1Br; low
8) COc1ccc(C2C(C#N)=C(N)Oc3n[nH]c(C)c32)cc1CN1CCN(c2ccc(F)cc2)CC1 (stereo not shown); low
9) Cc1ccc[n+](CC(=O)Nc2ccc([N+](=O)[O-])cc2)c1.[Cl-]; high
10) CC1CCCN(Cc2cnc(Cl)s2)C1 (stereo not shown); high

* * *

target: human ether-à-go-go-related gene (hERG) potassium channel (human); test: primary screen, population patch clamp on CHO cells stably expressing hERG; higher = less effect of the substance;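 note: peak tail current of the secondary pulse compared with the same well before compound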
Out of some 310,000 compounds screened, about 14,000 (4.5%) showed an effect of 50% or more. Effects have a minus sign here. Only a selection was taken, and strong results are over-represented in it overall.
Each item that follows carries a reported hERG current change (%, negative = inhibition) at 10uM.
Measurement Type: hERG current change (%, negative = inhibition) at 10uM (%)

1) Cc1cccc(NC(=O)CSc2ccc3nnc(-c4cccnc4)n3n2)c1; -30.1
2) CCOC(=O)c1c(NC(=O)CSc2nnc(-c3ccccc3C)n2C)sc(C(C)=O)c1C; -63
3) COc1ccc2[nH]c(CN3CCN(CC=C(C)C)C(CCO)C3)c(C)c2c1 (stereo not shown); -17.1
4) COc1cccc(CN2CCN(Cc3cc4ccccc4[nH]3)CC2CCO)c1 (stereo not shown); -59.7
5) O=C(CCCNC(=O)/C(=C\c1ccc(F)cc1)NC(=O)c1ccccc1)OCc1ccccc1; -77.1
6) CCOC(=O)c1c(NC(=O)CSc2nnc(Cc3ccccc3)o2)sc(C(C)=O)c1C; -64.8
7) O=C(CCCNC(=O)/C(=C/c1ccc(F)cc1)NC(=O)c1ccccc1)OCc1ccccc1; -64.3
8) O=C(CSc1nnc(NC(=O)c2ccc(F)cc2F)s1)NC1CCCC1; 17.7
9) Cc1cccc(CSc2ccc3nnc(-c4cccs4)n3n2)c1; 17.9
10) Fc1cccc(CSc2ccc3nnc(-c4cccnc4)n3n2)c1; -69
11) Cc1c(CN2CCN(CC(C)C)C(CCO)C2)[nH]c2ccc(Cl)cc12 (stereo not shown); -34.4
12) O=C(CSc1ccc2nnc(-c3cccnc3)n2n1)Nc1cccc(F)c1; -43.6
13) Cc1ccc(N2C(=O)c3cccc4c(C(=O)O)ccc(c34)C2=O)cc1; 8.57
14) O=C(O)CCCNC(=O)/C(=C\c1ccccc1F)NC(=O)c1ccccc1; 13.4
15) O=C(CCCNC(=O)/C(=C/c1ccccc1F)NC(=O)c1ccccc1)OCc1ccccc1; -5.02
16) CCOC(=O)c1c(NC(=O)CSc2nnc(-c3cccc(C)c3)n2CC)sc(C(C)=O)c1C; -18.9
17) CCOC(=O)c1sc(NC(=O)CSc2nnc(Cc3ccccc3)o2)c(C(=O)OCC)c1C; 9.46
18) COc1ccc2[nH]c(CN3CCN(CCC(C)C)C(CCO)C3)c(C)c2c1 (stereo not shown); 23.5
19) Cc1cccc(CSc2ccc3nnc(-c4cccnc4)n3n2)c1; -66.5
